# EC50 annotations
Tested on: HIV-1/106-Ala
Assay: Inhibition of HIV-1 induced syncytium formation in CEM cells, RT mutant 106-Ala
Format: cell-based
Details: Human immunodeficiency virus 1, CCRF-CEM, 96 h, Table 2B, day 4, averages of 2 to 3 independent experiments, read-out: Antiviral Activity of Comparative Compounds EC50, 106-Ala

molecule | experimental_target | test_readout | endpoint_value
Cc1sccc1C(=O)Nc1ccc(Cl)c(C(=O)OC(C(C)C)C(C)C)c1 [Compound 32] | HIV-1/106-Ala | EC50 | ≥ 2 µg/mL
CON=Cc1cc(NC(=O)c2ccoc2C)ccc1OC [Compound 47] | HIV-1/106-Ala | EC50 | ≥ 10 µg/mL
Cc1sccc1C(=S)Nc1ccc(Cl)c(OCC2CCCC2)c1 [Compound 28] | HIV-1/106-Ala | EC50 | 0.23 µg/mL
Cn1ccc(C(=S)Nc2ccc(Cl)c(C=NOC(C)(C)C)c2)c1 [Compound 11] | HIV-1/106-Ala | EC50 | 0.1 µg/mL
C#CCOc1cc(NC(=S)c2ccoc2C)ccc1Cl [Compound 117] | HIV-1/106-Ala | EC50 | 0.75 µg/mL
COc1ccc(NC(=O)c2ccoc2C)cc1CC(=O)OC(C)C [Compound 56] | HIV-1/106-Ala | EC50 | 6.5 µg/mL

The recorded EC50 for entry Cc1occc1C(=S)Nc1ccc(Cl)c(C(=O)OCC(F)(F)F)c1 [Compound 106] equals 0.08 µg/mL

// CCC1=C(C(=O)Nc2ccc(Cl)c(C=NOC(C)(C)C)c2)SCCO1 [Compound 15] : EC50 value = 0.06 µg/mL

The molecule listed as CC(C)C(OC(=O)c1cc(NC(=S)c2cccn2C)ccc1Cl)C(C)C [Compound 100] has a reported EC50 of 0.8 µg/mL

For CC=CCSc1cc(NC(=S)c2ccoc2C)ccc1Cl [Compound 6] the molecule record lists EC50 as 0.018 µg/mL

EC50 reported for this molecule Cc1occc1C(=S)Nc1ccc(Cl)c(OC2CCCCC2)c1 [Compound 26] : 0.09 µg/mL

# EC50 (molecule: CCC(CC)OC(=O)c1cc(NC(=S)c2ccccc2N)ccc1Cl [Compound 67] ) is ≥ 10 µg/mL

Query CC1=C(C(=O)Nc2ccc(Cl)c(C=NOC(C)(C)C)c2)SCCO1 [Compound 18] yields EC50 of 0.15 µg/mL

Record Cc1occc1C(=O)Nc1ccc(Cl)c(OCCC(C)C)c1 [Compound 37] . Reported EC50: 1.3 µg/mL

Value of measured EC50 for the entry Cc1sccc1C(=O)Nc1ccc(Cl)c(OCCC(C)C)c1 [Compound 33] : 0.65 µg/mL

For reference, reported EC50 for Cc1occc1C(=S)Nc1ccc(Cl)c(OC(=O)OC(C)C)c1 [Compound 46] stands at 3 µg/mL

For reference, reported EC50 for Cc1sccc1C(=S)Nc1ccc(Cl)c(OCC(=O)OC(C)(C)C)c1 [Compound 14] stands at 0.1 µg/mL

Note to self: EC50 recorded for CC(C)=CCOc1cc(NC(=O)c2ccsc2C)ccc1Cl [Compound 27] was 0.11 µg/mL
